SYSTEM_TESTED: T1, human IL-23 (Sino Biological, CT048-H08H) (human, UniProt Q9NPF7 20-189; P29460 23-328)
T1 construct: also called human IL-23 protein; Human IL-23 p19
T1 sequence (looked up) 1: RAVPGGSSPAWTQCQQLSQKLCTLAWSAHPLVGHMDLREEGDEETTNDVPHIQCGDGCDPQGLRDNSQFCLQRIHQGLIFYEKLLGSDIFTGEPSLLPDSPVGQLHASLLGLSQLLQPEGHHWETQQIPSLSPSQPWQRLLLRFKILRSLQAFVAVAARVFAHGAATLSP
T1 sequence (looked up) 2: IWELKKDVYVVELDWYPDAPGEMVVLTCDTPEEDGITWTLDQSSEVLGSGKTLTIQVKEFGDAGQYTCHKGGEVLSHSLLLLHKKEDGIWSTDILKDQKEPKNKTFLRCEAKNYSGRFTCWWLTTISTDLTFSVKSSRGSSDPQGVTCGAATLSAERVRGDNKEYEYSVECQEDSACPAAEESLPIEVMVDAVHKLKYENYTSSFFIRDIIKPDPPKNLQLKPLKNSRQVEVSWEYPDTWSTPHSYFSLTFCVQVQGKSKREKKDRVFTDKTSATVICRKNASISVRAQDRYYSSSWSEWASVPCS
ASSAY: competition ELISA, blocks IL-23/IL-23R; IL-23R coated, biotin-IL-23 + sample gradient
Procedure: The specific procedures are as follows: The receptor protein was diluted to 2 μg/mL with a PBS (BasalMedia, B320) buffer at pH 7.4 and added to a 96-well microplate (Corning, 3590) at 100 μL/well. The plate was incubated at 4° C. overnight. […] The absorbance values at 450 nm were taken using a microplate reader. Curves for the inhibition of binding of the ligands to the receptors were fitted using software, and the IC₅₀ values were calculated.
METRIC: pIC50
Scale: pIC50 equals -log10([C]), with [C] in mol/L.

Record excerpt, results attached:
Ch38 (antibody, human IgG1, kappa, L234A L235A, V domains shown, chimeric: murine variable regions on hIgG1/hkappa; also called chimeric antibody of mAb38) VH: EFQLQQSGPELVKPGASVKISCKASGYSFTDHNMNWVKQSNGKSLEWIGVINPNYGTTTYNQKFKGKATLTVDQSSSTAYMQLNILTSEDSAVYYCARRGFAYWGQGTLVTVSA VL: DIVISQDELSNPVTSGESVSISCRSSKSLLYKDGKTYLNWFLQRPGQSPQLLIYLMSTRASGVSDRFSGSGSGTDLTLEISRVKAEDVGVYYCQQIAEYPFTFGSGTKLEIKR; 9.44
Hu38-4 (antibody, human IgG1, kappa, L234A L235A, V domains shown, humanized mAb38, IgG1/kappa) VH: EFQLVQSGAEVKKPGASVKVSCKASGYTFTDHNMNWVRQAPGQRLEWMGVINPNYGTTTYNQKFKGRVTITVDTSASTAYMELSSLRSEDTAVYYCARRGFAYWGQGTLVTVSS VL: DIVMTQTPLSLPVTPGEPASISCRSSKSLLYKDGKTYLNWFLQKPGQSPQLLIYLMQTRASGVPDRFSGSGSGTDLTLKISRVEAEDVGVYYCQQIAEYPFTFGSGTKLEIKR; 9.37
Hu38-5 (antibody, human IgG1, kappa, L234A L235A, V domains shown, humanized mAb38, IgG1/kappa) VH: EVQLVQSGAEVKKPGASVKVSCKASGYSFTDHNMNWVRQAPGQRLEWMGVINPNYGTTTYNQKFKGRVTITVDTSASTAYMELSSLRSEDTAVYYCARRGFAYWGQGTLVTVSS VL: DIVMTQTPLSLPVTPGEPASISCRSSKSLLYKDGKTYLNWYLQKPGQSPQLLIYLMSTRASGVPDRFSGSGSGTDFTLKISRVEAEDVGVYYCQQIAEYPFTFGSGTKLEIKR; 9.64
Hu38-2 (antibody, human IgG1, kappa, L234A L235A, V domains shown, humanized mAb38, IgG1/kappa) VH: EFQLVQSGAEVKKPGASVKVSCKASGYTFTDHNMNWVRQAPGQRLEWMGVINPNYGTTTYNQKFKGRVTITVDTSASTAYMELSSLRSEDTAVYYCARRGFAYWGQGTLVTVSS VL: DIVMTQTPLSLPVTPGEPASISCRSSKSLLYKDGKTYLNWFLQKPGQSPQLLIYLMSTRASGVPDRFSGSGSGTDLTLKISRVEAEDVGVYYCQQIAEYPFTFGSGTKLEIKR; 9.33
Hu38-13 (antibody, human IgG1, kappa, L234A L235A, V domains shown, humanized mAb38, IgG1/kappa) VH: EFQLVQSGAEVKKPGASVKVSCKASGYSFTDHNMNWVRQAPGQSLEWMGVINPNYGTTTYNQKFKGRVTITVDQSASTAYMELSSLRSEDTAVYYCARRGFAYWGQGTLVTVSS VL: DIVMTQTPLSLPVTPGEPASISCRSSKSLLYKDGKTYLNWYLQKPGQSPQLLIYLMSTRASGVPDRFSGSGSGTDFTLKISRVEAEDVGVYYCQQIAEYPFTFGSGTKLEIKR; 9.34

Please examine the following record next.
# input binder: Hu38-9 (antibody, human IgG1, kappa, L234A L235A, V domains shown, humanized mAb38, IgG1/kappa) VH: EFQLVQSGAEVKKPGASVKVSCKASGYSFTDHNMNWVRQAPGQRLEWMGVINPNYGTTTYNQKFKGRVTITVDQSASTAYMELSSLRSEDTAVYYCARRGFAYWGQGTLVTVSS VL: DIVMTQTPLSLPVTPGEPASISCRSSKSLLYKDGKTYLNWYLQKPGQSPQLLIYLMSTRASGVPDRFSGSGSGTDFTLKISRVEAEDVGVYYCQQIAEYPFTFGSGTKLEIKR ; wanted: its pIC50
9.30
